Influenza PB2 (Influenza A virus) data, read-out pIC50
Sequence (P03428 whole entry, looked up): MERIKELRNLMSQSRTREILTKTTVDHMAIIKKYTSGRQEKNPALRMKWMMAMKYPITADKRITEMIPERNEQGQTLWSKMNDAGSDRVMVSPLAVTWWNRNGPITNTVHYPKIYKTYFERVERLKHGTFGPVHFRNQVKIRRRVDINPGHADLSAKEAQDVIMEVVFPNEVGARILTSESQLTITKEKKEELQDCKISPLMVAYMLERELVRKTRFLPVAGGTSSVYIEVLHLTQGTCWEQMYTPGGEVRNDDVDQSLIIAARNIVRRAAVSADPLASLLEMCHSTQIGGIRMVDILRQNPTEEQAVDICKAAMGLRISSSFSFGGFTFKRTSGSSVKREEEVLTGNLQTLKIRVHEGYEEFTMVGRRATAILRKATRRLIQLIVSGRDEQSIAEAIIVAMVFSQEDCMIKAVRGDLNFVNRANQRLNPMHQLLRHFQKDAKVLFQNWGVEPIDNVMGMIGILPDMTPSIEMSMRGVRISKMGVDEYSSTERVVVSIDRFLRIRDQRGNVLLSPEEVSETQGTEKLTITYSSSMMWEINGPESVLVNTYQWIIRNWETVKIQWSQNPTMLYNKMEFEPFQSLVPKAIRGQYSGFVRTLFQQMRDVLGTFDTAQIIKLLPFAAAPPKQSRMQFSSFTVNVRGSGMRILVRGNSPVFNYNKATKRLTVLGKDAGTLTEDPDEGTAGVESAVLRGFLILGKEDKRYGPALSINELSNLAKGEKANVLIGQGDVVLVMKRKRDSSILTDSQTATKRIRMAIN
pIC50: −log10 of the molar value.
measure: pIC50

- COC(=O)[C@@]1(C)CCCC[C@@H]1n1ccc2cnc(-c3c[nH]c4ncc(F)cc34)nc21: 4.00 to 5.00
- CC(CC(=O)O)n1cc(-c2c[nH]c3ncc(F)cc23)c2cncnc21 (stereo not shown): 4.00 to 5.00
- Fc1cnc2[nH]cc(-c3ncc4c(F)cn(CC5CCCCN5)c4n3)c2c1 (stereo not shown): 4.00 to 5.00
- CNC(=O)[C@@H]1C2CCC(CC2)C1n1cc(F)c2cnc(-c3c[nH]c4ncc(Cl)cc34)nc21 (single isomer, unassigned) [Compound B195]: 4.00 to 5.00
- C[C@H](NC(=O)Cn1ccc2c(-c3c[nH]c4ncc(F)cc34)ncnc21)C(=O)O: 4.00 to 5.00
- CCOC(=O)[C@]1(C)CCCC[C@H]1n1cc(F)c2cnc(-c3c[nH]c4ncc(Cl)cc34)nc21: < 4.00
- CCOC(=O)[C@H]1C2CCC(CC2)[C@@H]1n1cc(F)c2cnc(-c3c[nH]c4ncc(F)cc34)nc21: 4.00 to 5.00
- CCOCCOCCCCCNC(=O)N[C@@H]1CCC[C@H](n2ccc3cnc(-c4c[nH]c5ncc(F)cc45)nc32)C1: < 4.00
- CNC(=O)N[C@@H]1CCC[C@@H](n2ccc3cnc(-c4c[nH]c5ncc(F)cc45)nc32)C1: 5.00 to 6.00
- CN(C)C(=O)N1CCCC(Cn2cc(F)c3cnc(-c4c[nH]c5ncc(F)cc45)nc32)C1 (stereo not shown): 4.00 to 5.00
- CNC(=O)c1cn([C@H]2C3CCC(CC3)[C@@H]2C(=O)O)c2nc(-c3c[nH]c4ncc(Cl)cc34)ncc12: > 6.00
- O=C(O)[C@H]1C2CCC(CC2)C1n1ccc2cnc(-c3c[nH]c4ncc(F)cc34)nc21 (stereo partly shown) [Compound B120]: > 6.00
- O=C(O)[C@H]1C2CCC(CC2)[C@@H]1n1cc(-c2cccnc2)c2cnc(-c3c[nH]c4ncc(F)cc34)nc21: > 6.00
- CCOCCOCCOCCNC(=O)N[C@H]1CCC[C@@H](n2ccc3cnc(-c4c[nH]c5ncc(F)cc45)nc32)C1: 4.00 to 5.00
- N#Cc1cnccc1-c1cn([C@@H]2C3CCC(CC3)[C@H]2C(=O)O)c2nc(-c3c[nH]c4ncc(Cl)cc34)ncc12: 4.00 to 5.00
- CCOCCOCCOCCNC(=O)[C@H]1CCC[C@@H](n2ccc3cnc(-c4c[nH]c5ncc(F)cc45)nc32)C1: 4.00 to 5.00
- CCOCCOCCOCCN(C)C(=O)[C@@H]1CCCC[C@H]1n1ccc2cnc(-c3c[nH]c4ncc(F)cc34)nc21: 4.00 to 5.00
- Cc1cn([C@@H]2C3CCC(CC3)[C@H]2C(=O)O)c2nc(-c3c[nH]c4ncc(F)cc34)ncc12: > 6.00
- CNC(=O)[C@@H]1CCCCC1n1cc(F)c2cnc(-c3c[nH]c4ncc(Cl)cc34)nc21 (stereo partly shown): 4.00 to 5.00
- O=C(O)Cn1ccc2cnc(-c3c[nH]c4ncc(F)cc34)nc21: 4.00 to 5.00
- CCOCCCCCOCCNC(=O)N1CCC[C@H](n2ccc3cnc(-c4c[nH]c5ncc(F)cc45)nc32)C1: 4.00 to 5.00
- O=C(O)[C@@H]1CCCC[C@H]1n1ccc2cnc(-c3c[nH]c4ncc(F)cc34)nc21 (racemic) [Compound B15]: 5.00 to 6.00
- O=C(O)[C@H]1C2CCC(CC2)C1n1cc(Cl)c2cnc(-c3c[nH]c4ncc(F)cc34)nc21 (single isomer, unassigned) [Compound B133]: > 6.00
- O=C(O)[C@H]1C2CCC(CC2)[C@@H]1n1ccc2cnc(-c3c[nH]c4ncc(F)cc34)nc21: 5.00 to 6.00
- CCOC(=O)[C@@H]1C2CCC(CC2)[C@H]1n1cc(Cl)c2cnc(-c3c[nH]c4ncc(C#N)cc34)nc21: < 4.00
- CCOC(=O)[C@@H]1C2CCC(CC2)[C@H]1n1cc(C(F)(F)F)c2cnc(-c3c[nH]c4ncc(F)cc34)nc21: 4.00 to 5.00
- O=C(O)[C@@H]1C2CCC(CC2)[C@H]1n1cc(C#CC2CC2)c2cnc(-c3c[nH]c4ncc(F)cc34)nc21: > 6.00
- COC(=O)[C@H](CO)NC(=O)CCn1ccc2c(-c3c[nH]c4ncc(F)cc34)ncnc21: 4.00 to 5.00
